# subject of test: MeCP2 (full-length) (human, UniProt P51608 1-486)
# Sequence (P51608 whole entry): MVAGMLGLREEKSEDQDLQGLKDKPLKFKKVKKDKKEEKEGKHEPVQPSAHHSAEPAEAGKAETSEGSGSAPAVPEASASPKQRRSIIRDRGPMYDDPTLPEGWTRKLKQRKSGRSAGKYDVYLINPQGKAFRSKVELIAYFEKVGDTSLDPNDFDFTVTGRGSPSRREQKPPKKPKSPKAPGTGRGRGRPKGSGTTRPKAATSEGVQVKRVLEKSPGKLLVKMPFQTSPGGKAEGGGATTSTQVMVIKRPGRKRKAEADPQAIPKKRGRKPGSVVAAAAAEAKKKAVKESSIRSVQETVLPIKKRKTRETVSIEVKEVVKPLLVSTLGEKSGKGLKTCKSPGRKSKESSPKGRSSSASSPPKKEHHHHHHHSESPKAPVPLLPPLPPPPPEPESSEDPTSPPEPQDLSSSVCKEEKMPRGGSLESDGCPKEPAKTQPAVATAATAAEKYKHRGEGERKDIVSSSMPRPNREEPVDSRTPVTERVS
# procedure details: fluorescence anisotropy
readout kind: Kd

* mCpG 20 bp duplex (m/m) (dsDNA, 5mC at CpG C of both strands (strand 1 C8, strand 2 C12)) DNA 1: TCTGGAACGGAATTCTTCTA DNA 2: TAGAAGAATTCCGTTCCAGA | 36.5 nM
